All values here come from PubChem BioAssay (NCI).

- Tested on: MDA-N
- Experiment: NCI tumour cell line growth inhibition, 48 h
Measured parameter: TGI

Previously resolved entries follow.
Molecule: Cc1cccc2c(N)c3cccc(C(=O)NCC[N+](C)(C)Cc4ccccc4[N+](=O)[O-])c3nc12
Tgt: MDA-N
Measured result: > 41.4 µM
--
Molecule: O=C(NC(CS)C(=O)O)c1c2ccccc2nc2ccccc12 (stereo not drawn)
Tgt: MDA-N
Measured result: > 100 µM

// next entry
Query: Using the record for S=C(NCCc1ccccn1)N/N=C(\c1ccccc1)c1ccccn1 , state its measured TGI.
Response: > 100 µM

---

- System: MCF7 breast
- Experiment: NCI tumour cell line growth inhibition, 48 h
Measured parameter: TGI

Compound: Cc1ccc(S(=O)(=O)N(CCN)c2cc3c4c(c2)Oc2cccc5c2C4c2c(cccc2O3)O5)cc1
Measured result: 47.8 µM
--
Compound: O=c1[nH]c(-c2ccc(Cl)c(Cl)c2)cn1-c1ccc(Cl)cc1
Measured result: > 100 µM
--
Compound: CCCCCSc1ccc2nc(NC(=O)OCC)sc2c1
Measured result: > 100 µM
--
Compound: O=c1c2ccccc2n2c(-c3ccccc3O)nnc2n1-c1ccccc1
Measured result: > 100 µM

Query: Using the record for Cc1[nH]c2ncn3[nH]c(=S)nc3c2c1Cc1ccccc1 , state its measured TGI.
Response: > 100 µM

Query: Using the record for Cn1cc(NC(=O)Nc2cc(C(=O)Nc3cc(C(=O)Nc4ccc5cc(S(=O)(=O)O)cc(S(=O)(=O)O)c5c4)n(C)c3)n(C)c2)cc1C(=O)Nc1cc(C(=O)Nc2ccc3cc(S(=O)(=O)O)cc(S(=O)(=O)O)c3c2)n(C)c1 , state its measured TGI.
Response: > 100 µM

Query: Using the record for O=C(NC(CS)C(=O)O)c1c2ccccc2nc2ccccc12 (centres undefined) , state its measured TGI.
Response: > 100 µM

Query: Using the record for COc1ccc(O)c(/C=N\Nc2ccccc2)c1 , state its measured TGI.
Response: > 100 µM

Query: Using the record for C/C(=N\O)c1ccc(OCc2cc(C(F)(F)F)cc(C(F)(F)F)c2)cc1 , state its measured TGI.
Response: > 100 µM

Query: Using the record for O=C1Nc2cccc(Cl)c2/C1=C\c1cccnc1 , state its measured TGI.
Response: 18.1 µM

Query: Using the record for CCS1=C2C(=O)CC(C)(C)CC2=Nc2ccccc21 (centres undefined) , state its measured TGI.
Response: > 100 µM

Query: Using the record for C/C(=C/CC[C@](C)(OC1OC(CO)C(O)C(O)C1O)[C@H]1CC[C@]2(C)[C@@H]1CC[C@@H]1[C@@]3(C)CC[C@H](O)C(C)(C)[C@@H]3C[C@H](O)[C@]12CO)CO (some centres undefined) , state its measured TGI.
Response: > 100 µM

Query: Using the record for COc1ccc(Nc2ncc(I)c(NCCCNC(=O)C3CCC3)n2)cc1 , state its measured TGI.
Response: > 100 µM

Query: Using the record for COc1cccc(/C=C2\CCC(CN(C)C)C2=O)c1 (centres undefined) , state its measured TGI.
Response: 13.2 µM

---

- System: BT-549 breast
- Experiment: NCI tumour cell line growth inhibition, 48 h; in the data active = GI50 below about 0.43 µM; inactive = the rest
Bench note: report the call from Yes (active), No (inactive)

Compound: CC(C)(C)c1cc(C[P+](c2ccccc2)(c2ccccc2)c2ccccc2)cc(C(C)(C)C)c1O
Group label: Yes

Query: How was COc1ccc(C2c3ccc4ccccc4c3Oc3ncn(CCCn4ccnc4)c(=N)c32)cc1OC (stereo not drawn) classified in this test?
Response: No

Query: How was Oc1ccc(N=Nc2ccc(Br)cc2)c(O)c1 classified in this test?
Response: No

Query: How was ClCc1ccccc1Cn1cnc2nc(Cl)nc(Cl)c21 classified in this test?
Response: No

Query: How was COc1cccc(S(=O)(=O)NC2=NCCN2C(=S)SN2CCn3c2nsc3=S)c1 classified in this test?
Response: No

Query: How was COc1cccc2c1C(=O)c1c(O)c3c(c(O)c1C2=O)C[C@](O)(C(=O)CO)C[C@H]3O[C@@H]1C[C@@H](NC(=O)CCCN(C)C2(c3ccc(F)cc3)CC3CCC2C3)[C@H](O)[C@@H](C)O1 (stereo partly drawn) classified in this test?
Response: No

Query: How was COc1ccc(Sc2[nH]c(C=O)c3ccccc23)cc1 classified in this test?
Response: No

Query: How was Cc1cccc2c(=O)c3c(sc12)c(NCCCNCCO)nc1ccccc13 classified in this test?
Response: No

Query: How was NC(=O)c1cn(C2CC(O)C(CO)O2)c2ncnc(N)c12 (stereo not drawn) classified in this test?
Response: Yes

Query: How was Cc1[nH]c2ccccc2c1CO classified in this test?
Response: No

Query: How was COc1ccc(C(=O)/C=C/c2cc(-c3ccc(OC)c(OC)c3)n[nH]2)cc1OC classified in this test?
Response: No

Query: How was Cc1nnn(C)c1-c1cnc2c3ccc(C(C)(C)O)cc3n([C@H](c3ccccc3)C3CCOCC3)c2c1 classified in this test?
Response: No

Query: How was O=S(O)O.O=S(O)O.[Co].[NH2-].[NH2-].[NH2-].[NH2-] classified in this test?
Response: No

---

- Tested on: HOP-92 NSCLC
- Experiment: NCI tumour cell line growth inhibition, 48 h
Measured parameter: TGI

Query: Using the record for C/C(=C/CC[C@](C)(OC1OC(CO)C(O)C(O)C1O)[C@H]1CC[C@]2(C)[C@@H]1CC[C@@H]1[C@@]3(C)CC[C@H](O)C(C)(C)[C@@H]3C[C@H](O)[C@]12CO)CO (some centres undefined) , state its measured TGI.
Response: > 100 µM

Query: Using the record for COc1cc2c3c(n(CCCN=[N+]=[N-])c(=O)c2cc1OC)-c1ccc([N+](=O)[O-])cc1C3=O , state its measured TGI.
Response: > 100 µM

Query: Using the record for CCCCCN(CCCCC)CCC[C@@H](C)[C@H]1CC[C@H]2[C@@H]3[C@H](OCCCN)C[C@@H]4C[C@H](OCCCN)CC[C@]4(C)[C@H]3C[C@H](OCCCN)[C@]12C , state its measured TGI.
Response: 6.45 µM

Query: Using the record for C/C(O)=C(/C=N/C(=S)Nc1ccccc1)C(=O)Nc1ccccc1C , state its measured TGI.
Response: > 100 µM

---

- System: SK-MEL-28 melanoma
- Experiment: NCI tumour cell line growth inhibition, 48 h
Measured parameter: TGI

Previously resolved entries follow.
Molecule: CCOC(=O)NC(=O)c1cn(CCSCCOC(=O)NCCCCCCNC(=O)OCCSCCn2cc(C(=O)NC(=O)OCC)c(=O)n(C)c2=O)c(=O)n(C)c1=O
TGI: > 100 µM

Molecule: CC1(C)C(=O)/C=C\C(=O)C(C)(C)C2=CC=C(O2)C(C)(C)C(=O)C(Br)C(Br)C(=O)C(C)(C)C2=CC=C1O2 (centres undefined)
TGI: > 100 µM

Molecule: O=C1C(Cl)C(c2ccccc2Cl)N1n1cnc2ccccc2c1=O (centres undefined)
TGI: > 100 µM

Molecule: COC(=O)c1c2c(c(C)[n+]([O-])c1C)C(=O)C(NCc1ccccc1)=CC2=O
TGI: 22.2 µM

Molecule: O=C1CCC2(c3ccc(Cl)cc3)Nc3ccccc3N12 (centres undefined)
TGI: > 100 µM

Molecule: O=S(O)O.O=S(O)O.[Co].[NH2-].[NH2-].[NH2-].[NH2-]
TGI: > 100 µM

Molecule: O=S(Cc1ccccc1)c1ccccc1Cn1cccc1 (centres undefined)
TGI: > 100 µM

Molecule: NC(=O)c1cn(C2CC(O)C(CO)O2)c2ncnc(N)c12 (centres undefined)
TGI: > 83.1 µM

Query: Using the record for O=c1[nH]c2nc3ccccc3c(=O)n2/c1=C/c1ccccc1 , state its measured TGI.
Response: > 100 µM

Query: Using the record for COc1ccc2c(=O)c3ccoc3[nH]c2c1 , state its measured TGI.
Response: > 100 µM

Query: Using the record for CC(=O)Nc1ccc(S(=O)(=O)c2nnc(NC(C)=O)s2)cc1 , state its measured TGI.
Response: > 100 µM

Query: Using the record for N#Cc1ccc(C2ON=C(c3ccccc3)N2C23CC4CC(CC(C4)C2)C3)cc1 (centres undefined) , state its measured TGI.
Response: > 10 µM

Query: Using the record for CCC1C(NC(=O)OC)C(=O)N1[C@@H](C)c1ccccc1 (some centres undefined) , state its measured TGI.
Response: > 100 µM

Query: Using the record for O=C(CSCC(=O)N/N=C\c1ccc(F)cc1F)N/N=C\c1ccc(F)cc1F , state its measured TGI.
Response: > 100 µM

Query: Using the record for O=C1NC(=O)C(CCC(=O)c2cccc3ccccc23)C(=O)N1 , state its measured TGI.
Response: > 100 µM

Query: Using the record for NC(=O)N/N=C\CC(O)(C(F)(F)Cl)C(F)(F)Cl , state its measured TGI.
Response: > 10 µM

Query: Using the record for O=c1c2ccccc2n2c(-c3ccccc3O)nnc2n1-c1ccccc1 , state its measured TGI.
Response: > 100 µM

Query: Using the record for CCCN(CCC)c1ccc(/C=N/NC(=O)c2cccnc2)c(C)c1 , state its measured TGI.
Response: 43.1 µM

Query: Using the record for COc1ccc(Sc2[nH]c(C=O)c3ccccc23)cc1 , state its measured TGI.
Response: 30 µM
